# target-or-test-system: bacterial NAD synthetase enzyme (Bacillus subtilis, UniProt P08164)
# assay-method-text: biochemical
# Format: biochemical
# study-conditions: compound at 0.2 mM (Table 312A)
experimental-readout: % Inhibition (%)
Give a bare numeral; the unit % is implied.

Check out these entries, answers already filled in.
smiles-str	% Inhibition (%)
CC(=O)c1ccc2[nH]c(CCCCCCCC[n+]3ccc4ccccc4c3)cc2c1	56.47
CCCCc1ccc2[nH]c(CCCC[n+]3ccc4ccccc4c3)cc2c1	15.50
O=[N+]([O-])c1cc([N+](=O)[O-])c2[nH]c(CCCCCC[n+]3cccc4ccccc43)cc2c1	14.59

Now let's try a different one.
Noted for "O=C(O)c1ccc2[nH]c(CCCCCC[n+]3ccc4ccccc4c3)cc2c1" : its % Inhibition reads 51.72

----------
# System: Staphylococcus epidermitis
# assay-method-text: Bacterial growth inhibition screen in LB media (absorbance 595 nm), percent inhibition
# study-conditions: S. epidermitis; concentration screened 10 uM
Output: class label from % Inhibition. Mapping: lower segment: < 3%; middle segment: ≥ 3% and < 20%; upper segment: ≥ 20%

See these solved cases before continuing.
compound	classification
CN(C)c1ccc(C(=O)OCCCCCn2ccc3cc([N+](=O)[O-])ccc32)cc1 [Compound 843]	lower segment
c1ccc2[nH]c(CCCCCCC[n+]3cccc4ccccc43)cc2c1 [Compound 394]	middle segment
COc1ccc2[nH]c(CCC[n+]3ccccc3)cc2c1 [Compound 372]	upper segment
CC(=O)c1ccc2[nH]c(CCCCCCCOC(=O)c3ccncc3)cc2c1 [Compound 706]	middle segment
O=C(OCCCCc1cc2cc(C(F)(F)F)ccc2[nH]1)c1cccnc1 [Compound 654]	upper segment
CCCCc1ccc2[nH]c(CCCCCC[n+]3cccc4ccccc43)cc2c1 [Compound 423]	middle segment
O=C(OCCCCCCCCCn1ccc2cc([N+](=O)[O-])ccc21)c1cnc2ccccc2c1 [Compound 835]	upper segment
Fc1cc(F)c2[nH]c(CCC[n+]3cccc4ccccc43)cc2c1 [Compound 408]	lower segment

Below: the item to evaluate.
Qu. Could you place CC(=O)c1ccc2[nH]c(CCCCOC(=O)c3cccnc3)cc2c1 [Compound 672] in its proper category? Many thanks.
Ans. lower segment

----------
# target-or-test-system: bacterial NAD synthetase enzyme (Bacillus subtilis, UniProt P08164)
# Sequence (P08164 2-272 limits assumed): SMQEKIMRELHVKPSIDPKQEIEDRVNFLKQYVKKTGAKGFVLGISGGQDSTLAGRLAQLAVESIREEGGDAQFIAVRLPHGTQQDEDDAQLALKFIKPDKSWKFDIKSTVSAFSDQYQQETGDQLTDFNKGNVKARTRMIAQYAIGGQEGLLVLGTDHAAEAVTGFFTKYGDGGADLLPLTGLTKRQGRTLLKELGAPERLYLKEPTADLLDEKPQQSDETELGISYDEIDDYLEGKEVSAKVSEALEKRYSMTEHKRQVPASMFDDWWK
# assay-method-text: biochemical
# Assay type: biochemical
I would appreciate it if you labelled entries class 1 when inhibition at 200 µM is 90% or higher, otherwise class 0.

See these solved cases before continuing.
molecule	classification
C[n+]1cccc(C(=O)OCCCCCCCCOc2cccc([N+](=O)[O-])c2)c1 [Compound 1065]	class 0
C[N+](C)(C)c1ccc(CC(=O)OCCCCCCCCOc2cccc([N+](=O)[O-])c2)cc1 [Compound 1085]	class 0
COc1ccccc1OCCCCCCCCOC(=O)Cc1ccc([N+](C)(C)C)cc1 [Compound 1087]	class 0
C[N+](C)(C)c1ccc(CC(=O)OCCCCCCCCOc2ccccc2C(N)=O)cc1 [Compound 1080]	class 0
COC(=O)c1ccc[n+](CCCCCCCCn2ccc3cc([N+](=O)[O-])ccc32)c1 [Compound 13]	class 0

Qu. Identify whether the reported inhibition at 200 µM of the following molecule is 90% or greater: C[N+](C)(C)c1ccc(CC(=O)OCCCCCCCCOc2cccc(OC(=O)c3ccccc3)c2)cc1 [Compound 1079]
Ans. class 1

----------
# target-or-test-system: bacterial NAD synthetase enzyme (Bacillus subtilis)
# Sequence (P08164 2-272 limits assumed): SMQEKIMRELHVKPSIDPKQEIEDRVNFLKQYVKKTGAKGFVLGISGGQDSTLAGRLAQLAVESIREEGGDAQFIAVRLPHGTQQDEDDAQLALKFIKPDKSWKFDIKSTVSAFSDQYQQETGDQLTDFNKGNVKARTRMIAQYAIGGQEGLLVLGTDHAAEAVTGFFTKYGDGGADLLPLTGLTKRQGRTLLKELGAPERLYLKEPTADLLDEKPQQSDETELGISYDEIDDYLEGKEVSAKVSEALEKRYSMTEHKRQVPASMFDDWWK
# assay-method-text: biochemical
# Format: biochemical
# study-conditions: compound at 0.2 mM (Table 312A)
I would appreciate it if you labelled entries t when % Inhibition is 10% or higher, otherwise f.

Qu. Identify whether the reported % Inhibition of the following molecule is 10% or greater: "Fc1ccc2[nH]c(CCCC[n+]3ccccc3)cc2c1"
Ans. t

Qu. Identify whether the reported % Inhibition of the following molecule is 10% or greater: "FC(F)(F)c1ccc2[nH]c(CCCCCCCC[n+]3ccc4ccccc4c3)cc2c1"
Ans. t

Qu. Identify whether the reported % Inhibition of the following molecule is 10% or greater: "CC(=O)c1ccc2[nH]c(CCCCOC(=O)c3cccnc3)cc2c1"
Ans. f

Qu. Identify whether the reported % Inhibition of the following molecule is 10% or greater: "c1cc[n+](CCCCCCc2cc3ccccc3[nH]2)cc1"
Ans. t

----------
# Test system: Staphylococcus epidermitis
# assay-method-text: Bacterial growth inhibition screen in LB media (absorbance 595 nm), percent inhibition
# study-conditions: S. epidermitis; concentration screened 10 uM
I would appreciate it if you labelled entries rule met when % Inhibition is 20% or higher, otherwise rule not met.

compound	target-or-test-system	classification
Fc1cc(F)c2[nH]c(CCCCCCC[n+]3cccc4ccccc43)cc2c1	Staphylococcus epidermitis	rule not met

Qu. Identify whether the reported % Inhibition of the following compound is 20% or greater: "O=C(OCCCCCCCc1cc2cc(C(F)(F)F)ccc2[nH]1)C(c1ccccc1)c1ccccc1"
Ans. rule not met

----------
# Test system: Staphylococcus epidermitis
# assay-method-text: Bacterial growth inhibition screen in LB media (absorbance 595 nm), percent inhibition
# study-conditions: S. epidermitis; concentration screened 10 uM
// % Inhibition lookup, one value per entry

Check out these entries, answers already filled in.
smiles-str	experimental-readout	recorded-result
Fc1ccc2[nH]c(CCCCCCC[n+]3ccc4ccccc4c3)cc2c1	% Inhibition	9.44%
O=[N+]([O-])c1cc([N+](=O)[O-])c2[nH]c(CCC[n+]3ccccc3)cc2c1	% Inhibition	4.32%
CN(C)c1ccc(CC(=O)OCCCCCCCCn2ccc3cc([N+](=O)[O-])ccc32)cc1	% Inhibition	98.58%
CC(C)c1ccc2[nH]c(CCCCCCCCOC(=O)c3cccnc3)cc2c1	% Inhibition	3.07%
CCCCc1ccc2[nH]c(CCC[n+]3ccccc3)cc2c1	% Inhibition	4.60%

Now let's try a different one.
Noted for "C[N+](C)(C)c1cccc(C(=O)OCCCCCCn2ccc3cc(OCc4ccccc4)ccc32)c1" : its % Inhibition reads 97.22%

----------
# target-or-test-system: UniProt P08164
# assay-method-text: biochemical
# Type: biochemical
// IC50 lookup, one value per entry
Give a bare numeral; the unit µM is implied.

Check out these entries, answers already filled in.
compound	recorded-result
COc1ccccc1OCCCCCCCCOC(=O)Cc1ccc([N+](C)(C)C)cc1 [Compound 1087]	40
CC(=O)c1ccc2[nH]c(CCCCCCCCOC(=O)c3cc[n+](C)cc3)cc2c1 [Compound 909]	25
C[N+](C)(C)c1ccc(CC(=O)OCCCCCCCCOc2cccc(OC(=O)c3ccccc3)c2)cc1 [Compound 1079]	36.2
C[N+](C)(C)c1ccc(CC(=O)OCCCCCCCCOc2ccccc2C=CC(=O)c2ccccc2)cc1 [Compound 1086]	27.5
CC(=O)c1ccc2[nH]c(CCCCCCCCOC(=O)Cc3ccc[n+](C)c3)cc2c1 [Compound 939]	25
CC(C)c1ccc2[nH]c(CCCCOC(=O)c3ccc([N+](C)(C)C)cc3)cc2c1 [Compound 889]	75

Now let's try a different one.
Noted for COC(=O)c1cc2cc(OCc3ccccc3)ccc2n1CCCCCCC[n+]1ccccc1 [Compound 229] : its IC50 reads 25

----------
# target-or-test-system: UniProt:P08164
# Sequence (P08164 2-272 limits assumed): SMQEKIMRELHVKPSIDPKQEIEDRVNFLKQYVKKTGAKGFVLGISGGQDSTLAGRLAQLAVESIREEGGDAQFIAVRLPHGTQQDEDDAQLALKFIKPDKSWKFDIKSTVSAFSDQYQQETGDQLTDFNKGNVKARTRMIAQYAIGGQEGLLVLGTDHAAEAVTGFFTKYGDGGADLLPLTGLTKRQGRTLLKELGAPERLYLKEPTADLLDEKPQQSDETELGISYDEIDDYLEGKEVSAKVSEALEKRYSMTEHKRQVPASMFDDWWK
# assay-method-text: biochemical
# Format: biochemical
# study-conditions: NAD synthetase enzyme inhibition; read-out: IC50 of Compounds
// pIC50 lookup, one value per entry
Just so you know, pIC50 here is -log10 of the concentration in molar units; reply with that number alone.

smiles-str	recorded-result
COC(=O)c1cc2cc(OCc3ccccc3)ccc2n1CCCCCCCOC(=O)c1ccc(CN(C)C)cc1	4.16

Noted for "C[N+](C)(C)c1ccc(CC(=O)OCCCCCCCCOc2ccccc2[N+](=O)[O-])cc1" : its pIC50 reads 4.19

Noted for "CCCCc1oc2ccccc2c1C(=O)c1ccc(OCCCCCCCCOC(=O)Cc2ccc([N+](C)(C)C)cc2)cc1" : its pIC50 reads 4.90

FYI, the data here is from patent US6727237B2.
